- METHOD_DESCRIPTION: Half life in Sprague-Dawley rat at 4 mg/kg, iv and 10 mg/kg, po
- Format: ADME, organism-based
- CONDITION_SET: in vivo
MEASURED_PROPERTY: half-life (min)
// units = min; emit number, no label

QUERY: Which measured half-life value corresponds to "OC[C@H]1CC[C@]2(CC1)OO[C@]1(O2)C2CC3CC(C2)CC1C3" ?
RESULT: 27

====

Below, each of the molecules is paired with its reported clearance value.
- METHOD_DESCRIPTION: Plasma clearance in Sprague-Dawley rat at 25 mg/kg, iv and 50 mg/kg, po
- Format: ADME, organism-based
Report the figure in mL/min/kg without appending any unit label.

| MOLECULE | OBSERVED_VALUE |
| --- | --- |
| CS(=O)(=O)O.NC[C@H]1CC[C@]2(CC1)OOC1(O2)C2CC3CC(C2)CC1C3 (some centres not stated) | 177 |

Next up:
QUERY: Quick check: clearance of "NC(=O)CNC[C@H]1CC[C@]2(CC1)OO[C@]1(O2)C2CC3CC(C2)CC1C3" ?
RESULT: 102

====

- METHOD_DESCRIPTION: Plasma clearance in Sprague-Dawley rat at 10 mg/kg, iv and 50 mg/kg, po
- Format: ADME, organism-based
MEASURED_PROPERTY: clearance (mL/min/kg)
The answer is to be given in mL/min/kg; state only the numeric part.

QUERY: What value of clearance has been recorded for this entry: "Cl.c1cn(C[C@H]2CC[C@]3(CC2)OO[C@]2(O3)C3CC4CC(C3)CC2C4)cn1"
RESULT: 60.1

====

- METHOD_DESCRIPTION: Half life in Sprague-Dawley rat at 10 mg/kg, iv and 50 mg/kg, po
- Type: ADME, organism-based
- CONDITION_SET: in vivo
MEASURED_PROPERTY: half-life (min)
The figure you give is taken to be in min; do not add the unit.

QUERY: What does the data say about its half-life? Entry: "Cl.c1cn(C[C@H]2CC[C@]3(CC2)OO[C@]2(O3)C3CC4CC(C3)CC2C4)cn1"
RESULT: 47

====

- METHOD_DESCRIPTION: Bioavailability in Sprague-Dawley rat at 10 mg/kg, po
- Type: ADME, organism-based
- CONDITION_SET: in vivo
MEASURED_PROPERTY: bioavailability (%)
Numbers only; they are read as %.

QUERY: What bioavailability value was documented for this molecule, "Cl.c1cn(C[C@H]2CC[C@]3(CC2)OO[C@]2(O3)C3CC4CC(C3)CC2C4)cn1" ?
RESULT: 36

====

- System: Plasmodium berghei
- METHOD_DESCRIPTION: Antimalarial activity as reduced parasitaemia against Plasmodium berghei infected MORO mice (Mus musculus) at 10 mg/kg peroral dose
- Type: functional
- Parameters: scale not given: the % may be the effect or the level left
- CONDITION_SET: route oral
MEASURED_PROPERTY: Activity (%)
Numbers only; they are read as %.

Some compounds with known Activity results, for comparison:
| COMPOUND | UNIT_SPEC | OBSERVED_VALUE |
| --- | --- | --- |
| NS(=O)(=O)c1ccc(NC[C@H]2CC[C@]3(CC2)OO[C@]2(O3)C3CC4CC(C3)CC2C4)cc1 | % | 99.95 |
| NS(=O)(=O)c1ccc(N[C@H]2CC[C@]3(CC2)OO[C@]2(O3)C3CC4CC(C3)CC2C4)cc1 | % | 99.98 |

QUERY: Any idea what Activity came out for "OCC[C@H]1CC[C@]2(CC1)OO[C@]1(O2)C2CC3CC(C2)CC1C3" on Plasmodium berghei?
RESULT: 89

QUERY: // fetch Plasmodium berghei Activity for "NC(=O)c1ccc(N[C@H]2CC[C@]3(CC2)OO[C@]2(O3)C3CC4CC(C3)CC2C4)cc1"
RESULT: 99.98

QUERY: Item: CC(C)(C)C1CCC2(CC1)OOC1(CCC(CN)CC1)O2.CS(=O)(=O)O (stereo not given) Test system: Plasmodium berghei Read-out: Activity Value: ?
RESULT: 0

QUERY: Provide the documented Activity with Plasmodium berghei as the system for "c1c[nH]c(C[C@H]2CC[C@]3(CC2)OO[C@]2(O3)C3CC4CC(C3)CC2C4)n1"
RESULT: 71

QUERY: Record "C1C2CC3CC1CC(C2)[C@]31OO[C@@]2(CC[C@H](Cc3nnn[nH]3)CC2)O1" : what is its Activity with Plasmodium berghei?
RESULT: 40

QUERY: Value wanted: Activity (Plasmodium berghei) of entry "c1cnn(C[C@H]2CC[C@]3(CC2)OO[C@]2(O3)C3CC4CC(C3)CC2C4)c1"
RESULT: 78

QUERY: Find Activity (Plasmodium berghei) for the entry "NC(=O)c1cncn1C[C@H]1CC[C@]2(CC1)OO[C@]1(O2)C2CC3CC(C2)CC1C3"
RESULT: 99.77

QUERY: Request body: readout Activity, system Plasmodium berghei, query "NC(=O)CN(CC(N)=O)C[C@H]1CC[C@]2(CC1)OO[C@]1(O2)C2CC3CC(C2)CC1C3" . Return the value.
RESULT: 86
